- System: MIWI (PIWIL1) piRISC loaded with L1MC piRNA (30 nt);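 also: 1 nM active piRISC with 0.1 nM target library at 33 °C single turnover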
- Run description: pre-steady-state target cleavage rate (min^-1); MIWI and MILI are mouse PIWI proteins and EfPiwi is from a freshwater sponge; tags in brackets are library labels; higher = faster piRNA-guided slicing of the target;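 also: 1 nM active piRISC with 0.1 nM target library at 33 °C single turnover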
- Setup conditions: guide: L1MC piRNA 5'p-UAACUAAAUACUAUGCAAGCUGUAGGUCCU; auxiliary factor: none (no GTSF1)
Whole data set: some 8,200 sequences, median “pre-steady-state target cleavage rate” near 0.024, cut for the highest 2% near 1.3. Many of the other results were omitted from the sample, so the highest values are more common in it than they were.
Metric: pre-steady-state target cleavage rate
Please respond with just the number, no unit label.

Worked cases, answers included:
UGGAACCUACAGCUUGCAUAGUAUUUAGUUA ... 0.0747
UCCACCUACUCGUUGCAUAGUAUUUAGUAA ... 0.00745
AGGUCCUACAGCUUGGAUAGUAUUUAGUUA ... 0.079
UCCACCUACAGCUUGCAUAGUAUUUAGUUG [g2:g27:cont:t1G] ... 0.0371

// query For the sequence UGAACCUACAGCUUGCAUAGUAUUUAGUUA , report pre-steady-state target cleavage rate.
// result 0.0751
